system: OVCAR-3; experiment: NCI tumour cell line growth inhibition, 48 h
Active and inactive are the calls of the source. No stated cut-off is given here; in the data, active = GI50 up to about 1.1 µM and inactive = higher.
Output constraint: value belongs to true (active), false (inactive)

- compound: "CN(C)CCC(CCN(C)C)=NO"
  measured target: "OVCAR-3"
  group label: "false"
- compound: "CC1=C/C(=C2/N=C(N(C)C)SS2)C(C)=N1.[O-][Cl+3]([O-])([O-])O"
  measured target: "OVCAR-3"
  group label: "false"
- compound: "O=C(O)CC(O)(c1ccccc1C(=O)O)c1cccc2ccccc12 (stereo unspecified)"
  measured target: "OVCAR-3"
  group label: "false"
- compound: "COc1cc2c[n+](C)c3c4cc(OC)c(OC)cc4c(OCc4ccccc4)cc3c2cc1OC"
  measured target: "OVCAR-3"
  group label: "true"
- compound: "C[Si](C)(C)CC(N)=O"
  measured target: "OVCAR-3"
  group label: "false"

Test call for this compound, please: COc1ccc2c(c1)C1Oc3ccccc3CC1CO2 (stereo unspecified)
false

How did this test come out for O=C(O)C1C2C=CC(C2)C1c1ccccc1 (stereo unspecified) ?
false

# lookup: test call for COc1nc2c(c(=O)n1C)N=C(c1ccc(Cl)cc1)CC(c1ccccc1)N2 (stereo unspecified)
false

Write down the call the test reported for this compound. Item: "Oc1c(N2CCCCC2)cc(-c2cc(N3CCCCC3)c(O)c3ccccc23)c2ccccc12"
false

Called result for "CCN(CC)CCC(=O)/C=C/c1ccc(C)cc1"
false

What classification did "Cc1cc(N(CCC#N)CCC#N)ccc1C(/N=N/c1ccc([N+](=O)[O-])cc1)=N\NC(=O)c1cc(Cl)ccc1C(=O)c1ccccc1" end up with in this test?
false

* * *

test system: SN12C; experiment: NCI tumour cell line growth inhibition, 48 h
Calls of active or inactive are those of the source. Cut-off read from the data, not from the text of the source: active = GI50 up to about 1.1 µM and inactive = higher.
Respond with a class label; see yes (1) (active), no (0) (inactive)

- compound: "COc1ccc(C2c3cc4c(cc3C(O)C3CCC(=O)N23)OCO4)cc1 (centres undefined)"
  group label: "no (0)"
- compound: "CCCCCCCCCCCC/C=C\\CC[C@@H](O)[C@H](O)CC[C@H](O)[C@@H]1CC[C@@H](CCCCCCCC2=C[C@H](C)OC2=O)O1"
  group label: "no (0)"
- compound: "Cc1ccc2c(c1)-c1nc(N)c(C#N)c(-c3ccccc3)c1CCS2(=O)=O"
  group label: "no (0)"
- compound: "O=Cc1cc2sc(C=O)cc2s1"
  group label: "no (0)"

Please state the recorded outcome for this compound: Cc1nn(C(=O)c2ccc(Cl)cc2)c2c1C(c1cccc([N+](=O)[O-])c1)SC(=N)N2 (centres undefined)
no (0)

Returns: the outcome recorded for "Nc1c(C(=O)Nc2ccc([As](=O)(O)O)cc2)cnc2nnnn12" in this assay.
no (0)

# outcome recorded in this test, key = "COc1cc(-c2cc(=O)c3cc(C)c(C)c(C(=O)O)c3o2)cc(OC)c1OC"
no (0)

Record request — test call for "CC(=O)CC(=O)Nc1ccccc1[N+](=O)[O-]"
no (0)

Dear colleague, could you share the recorded outcome for "COc1ccc2c(c1)C(=O)c1ccc(OC)cc1C2=S" when you have a moment?
no (0)

# outcome recorded in this test, key = "COc1ccc(C)cc(O)c1=O"
no (0)

Would you mind telling me which call this test gave [N-]=[N+]=NC(CCl)c1cn([C@H]2C[C@H](O)[C@@H](CO)O2)c(=O)[nH]c1=O (some centres undefined) ?
no (0)

* * *

tested on: OVCAR-8; assay: NCI tumour cell line growth inhibition, 48 h
Active and inactive are the calls of the source. Rule as the data show it: active = GI50 up to about 1.1 µM and inactive = higher.
measured metric: GI50

Consider the reported GI50 for these molecules:
- molecule: "C=C(C(=O)O)[C@@H]1C[C@@H](OC(C)=O)[C@]2(C)CC/C=C(\\C)CCC[C@H](C)[C@H](O)[C@@H]1O2"
  result: "27.5 µM (inactive)"
- molecule: "CCOC(=O)C(NC(=O)c1nc[nH]c1[N+](=O)[O-])C(C)C (centres undefined)"
  result: "84.9 µM (inactive)"
- molecule: "COc1cc(-c2cc(=O)c3cc(C)c(C)c(C(=O)O)c3o2)cc(OC)c1OC"
  result: "> 100 µM (inactive)"

// switching to the query molecule
Tell me reported GI50 for CC(=O)ON(C(C)=O)C1C(COC(c2ccccc2)(c2ccccc2)c2ccccc2)OC2OC3(CCCC3)OC21 (centres undefined) , tested with OVCAR-8.
5.13 µM (inactive)

* * *

Please provide measured GI50 for the entries that follow.
tested on: HCC 2998; experiment: NCI tumour cell line growth inhibition, 48 h
The source made the active and inactive calls. Cut-off read from the data, not from the text of the source: active = GI50 up to about 1.1 µM and inactive = higher.

Guide cases for GI50, answers given:
- molecule: "O1C2C1C1OC1C1OC1C1OC21 (stereo not given)"
  GI50: "> 100 µM (inactive)"
- molecule: "Cc1ccc(S(=O)(=O)n2c(-c3ccccc3)c(-c3ccccc3)c3ccccc32)cc1"
  GI50: "> 100 µM (inactive)"
- molecule: "Cc1ccc([S+]([O-])C[C@](NC(=O)OCc2ccccc2)(Sc2ccccc2)C(F)F)cc1 (stereo not given in full)"
  GI50: "18.7 µM (inactive)"
- molecule: "N#CC1(c2ccccc2)CCN(C2(c3ccccc3)CCCCC2)CC1"
  GI50: "> 100 µM (inactive)"

For each entry beneath this line, provide reported GI50.
1. C[C@@H]1C[C@@H]2C(=O)N(c3ccccc3)C(=O)[C@@H]2c2[nH]c3ccc(Br)cc3c21
2. Cc1cc(N(CCC#N)CCC#N)ccc1/C=N/NC(=O)c1ccccc1
3. Cc1nc2sc(CCl)nn2c(=O)c1Cl

1: 51.1 µM (inactive); 2: 9.2 µM (inactive); 3: 22 µM (inactive)

* * *

tested on: SK-MEL-28; test: NCI tumour cell line growth inhibition, 48 h
The source made the active and inactive calls. No stated cut-off is given here; in the data, active = GI50 up to about 1.1 µM and inactive = higher.
measured metric: GI50

// worked examples, GI50 included
- compound: "CCN(CC)CCNc1ccc2nnn3c4ccc([N+](=O)[O-])cc4c(=O)c1c23"
  result: "14 µM (inactive)"
- compound: "O=C(c1ccccc1)c1nnc(C(=O)c2ccccc2)nn1"
  result: "> 344 µM (inactive)"
- compound: "Cc1ccc(/C=C2\\N=C(N3CCCCC3)NC2=O)cc1"
  result: "> 100 µM (inactive)"

Provide each entry's GI50 from the list below.
1. O=[N+]([O-])C1=Cc2c(O)ccc(O)c2C2c3ccccc3NC12 (stereo not drawn)
2. COc1ccc(C=C2C(=O)OC(C)(C)OC2=O)cc1OC
3. C[C@@H]1CC[C@@]2(C)OC(c3ccccc3)[C@H](CO)N2C1=O (stereo partly drawn)

["18.5 µM (inactive)", "> 100 µM (inactive)", "> 100 µM (inactive)"]

Consider the following items and state reported GI50 for each.
1. O=c1[nH]/c(=C/c2ccc(OCc3ccccc3)cn2)c(=O)[nH]/c1=C/c1ccc(O)cc1
2. COC(=O)C1=CC2CCCC1(O)C(C(C)=O)C2 (stereo not drawn)
3. CCC(C)[C@H](NC(=O)[C@H](Cc1ccccc1)NC(=O)N(CC)c1ccccc1)C(=O)N[C@@H](CC(C)C)C(=O)OC (stereo partly drawn)
4. Cn1c(=O)[nH]c2c(c1=O)C(=O)CN2

1. 1.79 µM (inactive)
2. > 100 µM (inactive)
3. 40.3 µM (inactive)
4. > 100 µM (inactive)

Each compound below has a reported value. Please supply its GI50.
1. CCOC(=O)CNc1nc(=O)c2c(=O)oc(Cl)cc2o1
2. CNC(=S)Nc1ccc(OC)c2ccccc12
3. CCOC(=O)C1Cc2[nH]c3ccccc3c2C(C)C1C (stereo not drawn)
4. CCCCCCCCCCCCCCCCOP(=O)(O)OP(=O)(O)OCC1OC(n2cnc3c(N)ncnc32)C(O)C1O (stereo not drawn)
5. O=C1CCSc2c(cnc3ccccc23)N1
6. Cc1ncc([N+](=O)[O-])n1CCN=[N+]=[N-]
7. COP(=O)(OC)/C(=C\c1cn(C(c2ccccc2)(c2ccccc2)c2ccccc2)cn1)NC(C)=O
8. C[C@]12CC[C@H]3[C@@H](CCC4=CC(=O)CC[C@@]43C)[C@]1(O)CC[C@]2(O)C(=O)CO

1. 22.9 µM (inactive)
2. > 10 µM (inactive)
3. 17.1 µM (inactive)
4. 24.5 µM (inactive)
5. > 100 µM (inactive)
6. > 100 µM (inactive)
7. > 100 µM (inactive)
8. > 100 µM (inactive)

Dear colleague, could you please provide GI50 for the compounds listed below?
1. N=C(N)c1ccc(/N=N/c2c(O)ccc3cc(O)ccc23)cc1
2. O=C1N[C@@H]([C@H]2CC[C@H](Cl)CN2)C(=O)N[C@H]1[C@H]1CC[C@H](Cl)CN1
3. Cc1nnc2sc(Cl)nn12
4. OC1NC2Nc3ccccc3NC2NC1O (stereo not drawn)

1. > 100 µM (inactive)
2. 4.32 µM (inactive)
3. 19.4 µM (inactive)
4. > 100 µM (inactive)

State its GI50 on SK-MEL-28: "Cc1nnc2sc(Cc3cnc(N)s3)nn12"
> 100 µM (inactive)
